Values compiled from patent US20260374739A1.

assay_system: EphrinB2-EphB2 (Homo sapiens)
Construct: soluble human EphB1-His, EphB2-His, and EphB4-His ectodomains; commercially available human EphrinB1-Fc (EB1), EphrinB2-Fc (EB2), and EphrinB3-Fc (EB3) ectodomain proteins; purchased
protocol_description: Octet 80 sec association/500 sec dissociation, immobilized human EphrinB2-Fc binding to soluble human EphB2-His
reported_conditions: EphB2; Dissociation (135″); read-out: Absolute IC50
measure_name: pIC50
Keep it numeric: pIC50 is minus log10 of the concentration in mol/L.

>  <smiles_text>
Oc1c(I)cc(CN2CCOCC2)c2cccnc12

>  <pIC50>
6.39

$$$$

Would you mind telling me what pIC50 value was observed for `Oc1c(Br)cc(CN2CCN(c3ccc(Br)cc3)CC2)c2cccnc12` ?
6.60

---

assay_system: EphB2-EphrinB2 (Mus musculus, UniProt P54763)
Sequence (P54763 19-543 limits assumed): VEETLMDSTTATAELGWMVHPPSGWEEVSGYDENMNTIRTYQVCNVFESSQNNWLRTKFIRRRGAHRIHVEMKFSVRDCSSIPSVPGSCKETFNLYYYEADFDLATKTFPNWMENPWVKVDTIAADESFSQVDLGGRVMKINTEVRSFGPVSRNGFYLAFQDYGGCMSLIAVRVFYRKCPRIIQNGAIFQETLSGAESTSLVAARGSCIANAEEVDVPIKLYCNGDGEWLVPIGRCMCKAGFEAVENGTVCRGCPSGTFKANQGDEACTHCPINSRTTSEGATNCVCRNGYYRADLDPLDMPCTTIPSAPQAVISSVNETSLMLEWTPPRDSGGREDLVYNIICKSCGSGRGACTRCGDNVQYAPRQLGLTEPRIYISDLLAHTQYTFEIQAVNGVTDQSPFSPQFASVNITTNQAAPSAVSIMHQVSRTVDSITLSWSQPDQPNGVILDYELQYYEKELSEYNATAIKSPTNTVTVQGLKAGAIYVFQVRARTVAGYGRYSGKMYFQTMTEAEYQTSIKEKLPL
protocol_description: Octet, immobilized mouse EphB2 binding to mouse EphrinB2
reported_conditions: Relative Dissociation IC50, mEphB2-mEphrinB2; immobilized mouse EphB2; 50 nM soluble mouse EphrinB2; dissociation; relative
measure_name: IC50 (nM)
Number in nM, nothing else.

Below: 3 compounds and their reported IC50.
>  <compound>
Oc1c(Br)cc(CN2CCOCC2)c2cccnc12 [Compound 6]

>  <measured_number>
500

$$$$
>  <compound>
Oc1c(Cl)cc(CN2CCOCC2)c2cccnc12 [Compound 4]

>  <measured_number>
630

$$$$
>  <compound>
Oc1ccc(CN2CCOCC2)c2cccnc12 [Compound 1, 5-(morpholinomethyl)quinolin-8-ol]

>  <measured_number>
900

$$$$

Param item = Oc1ccc(CN2CCN(Cc3ccc(C(F)(F)F)cc3)CC2)c2cccnc12 [Compound 48] ; retrieve measured IC50.
2120

O=S1(=O)CCN(Cc2ccc(O)c3ncccc23)CC1 [Compound 15] ?
990

---

assay_system: EphrinB2-EphB2 (Homo sapiens, UniProt P29323)
Construct: soluble human EphB1-His, EphB2-His, and EphB4-His ectodomains; commercially available human EphrinB1-Fc (EB1), EphrinB2-Fc (EB2), and EphrinB3-Fc (EB3) ectodomain proteins; purchased
Sequence (P29323 19-543 limits assumed): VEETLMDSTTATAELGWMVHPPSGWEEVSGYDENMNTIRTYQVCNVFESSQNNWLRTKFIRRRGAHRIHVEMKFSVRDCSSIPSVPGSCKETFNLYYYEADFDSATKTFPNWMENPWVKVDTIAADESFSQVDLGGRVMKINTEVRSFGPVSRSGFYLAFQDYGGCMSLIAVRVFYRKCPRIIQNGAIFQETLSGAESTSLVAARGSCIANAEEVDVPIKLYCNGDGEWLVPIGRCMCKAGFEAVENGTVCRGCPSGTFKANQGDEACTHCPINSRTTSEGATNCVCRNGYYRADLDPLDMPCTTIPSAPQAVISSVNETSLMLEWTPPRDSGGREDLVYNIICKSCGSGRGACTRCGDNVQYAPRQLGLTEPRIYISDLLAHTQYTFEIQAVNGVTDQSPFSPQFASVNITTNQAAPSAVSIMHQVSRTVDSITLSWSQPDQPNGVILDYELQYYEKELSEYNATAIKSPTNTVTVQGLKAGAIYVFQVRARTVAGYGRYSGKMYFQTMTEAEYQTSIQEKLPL
protocol_description: Octet 80 sec association/500 sec dissociation, immobilized human EphrinB2-Fc binding to soluble human EphB2-His
reported_conditions: EphB2; Association (AUC); read-out: Relative IC50
We begin with a simple list: items and their reported IC50.
Form entry: value (nM) — number only.

>  <smiles_text>
Oc1c(I)cc(CN2CCOCC2)c2cccnc12

>  <assay_system>
EphrinB2-EphB2 (Homo sapiens, UniProt P29323)

>  <unit_abbrev>
nM

>  <IC50>
1150

$$$$

Now for a further molecule.
# query: IC50 of entry `Oc1c(Br)cc(CN2CCN(c3ccc(Br)cc3)CC2)c2cccnc12`
280
